- Test system: Vibrio cholerae
- procedure summary: growth AUC normalised to DMSO control (fraction of control); higher = less growth inhibition, active = hit call of the paper
- applied conditions: 20 µM
measurement name: growth AUC normalised to DMSO control
Write the value as a bare number.

Example cases with answers are listed next.
> print(dat)
                          molecule  experimental.value
1     CNCCC=C1c2ccccc2C=Cc2ccccc21               0.888
2  O=C1O[C@H]([C@@H](O)CO)C(O)=C1O                1.02
3     Cn1c(=O)c2c(ncn2CCO)n(C)c1=O                1.01

With those in mind, consider the next molecule.
Write down the reported growth AUC normalised to DMSO control of CCc1ccc(CCOc2ccc(CC3SC(=O)NC3=O)cc2)nc1 (stereo unspecified) , test system: Vibrio cholerae. 0.911

====

Listing of recorded growth AUC normalised to DMSO control by entry.
- Test system: Vibrio cholerae
- procedure summary: growth AUC normalised to DMSO control (fraction of control); higher = less growth inhibition, active = hit call of the paper
- applied conditions: 20 µM
Structures can show the parent of a compound that is named as a salt.
Write the value as a bare number.

Example cases with answers are listed next.
> print(dat)
                                   molecule                       measurement.name  experimental.value
1  C#C[C@]1(O)CC[C@H]2[C@@H]3CCC4=CC(=O)CC[C@@H]4[C@H]3CC[C@@]21CC [(D-) Norgestrel]  growth AUC normalised to DMSO control               0.961
2  C=CCSCC1Nc2cc(Cl)c(S(N)(=O)=O)cc2S(=O)(=O)N1 (stereo not given) [Althiazide]  growth AUC normalised to DMSO control                1.03
3  Cc1ccccc1OCC(O)CO (stereo not given) [Mephenesin]  growth AUC normalised to DMSO control               0.999
4  CC1Cc2ccccc2N1NC(=O)c1ccc(Cl)c(S(N)(=O)=O)c1 (stereo not given) [Indapamide]  growth AUC normalised to DMSO control                1.01

Write down the reported growth AUC normalised to DMSO control of CC(CN(C)C)C(C)(O)Cc1ccc(Cl)cc1 (stereo not given) [Clobutinol hydrochloride] , test system: Vibrio cholerae. 0.987

====

- Test system: Yersinia pseudotuberculosis
- procedure summary: growth AUC normalised to DMSO control (fraction of control); higher = less growth inhibition, active = hit call of the paper
- applied conditions: 20 µM
Where a name gives a salt, the structure may show the parent alone.
Listing of recorded growth AUC normalised to DMSO control by entry.
Write the value as a bare number.

Example cases with answers are listed next.
> print(dat)
                                   compound                  system.name  experimental.value
1         NNCCc1ccccc1 [Phenelzine sulfate]  Yersinia pseudotuberculosis                1.02
2  CC(=O)c1ccc(S(=O)(=O)NC(=O)NC2CCCCC2)cc1 [Acetohexamide]  Yersinia pseudotuberculosis               0.989
3  CC(C)NCC(O)c1ccc(O)c(O)c1 (single isomer, unassigned; (+)) [(+) Isoproterenol-(+)-bitartrate salt]  Yersinia pseudotuberculosis               0.913
4  Nc1ncnc2c1ncn2[C@@H]1O[C@H](CO)[C@@H](O)[C@@H]1O  Yersinia pseudotuberculosis               0.829
5  CN(C(=O)C(Cl)Cl)c1ccc(OC(=O)c2ccco2)cc1 [Diloxanide furoate]  Yersinia pseudotuberculosis               0.978

// growth AUC normalised to DMSO control lookup, key: CCc1nc(N)nc(N)c1-c1ccc(Cl)cc1 0.932

Repeat with CNCCCC1c2ccccc2C=Cc2ccccc21 [Protriptyline hydrochloride] 1

Repeat with CCCCOc1ccc(CC(=O)NO)cc1 0.956

Repeat with CC(C(=O)O)c1ccc(C(=O)c2cccs2)cc1 (centres undefined) 1.02

Where do the numbers come from? From the supplement of paper PMC12350171.
